assay: Pharmacokinetic test in SD rats; format: in vivo; settings: rat, in vivo, po, 10 mg/kg, rats, intragastric gavage 10 mg/kg; No. 2
Endpoint: Cmax (ng/mL)

Compound	Unit	Data value
C[C@@H](Nc1ccn2ncc(C3=NOC(C)(C)N3)c2n1)c1cc(F)cc(F)c1F [crystal form A]	ng/mL	459

###

experiment: Pharmacokinetic test in SD rats; type: in vivo; details: rat, plasma, po, 10 mg/kg, Mean of rats No. 1-3; intragastric gavage at 10 mg/kg
Endpoint: AUC(0-inf) (ng·h/mL)

Compound	Unit	Data value
C[C@@H](Nc1ccn2ncc(C3=NOC(C)(C)N3)c2n1)c1cc(F)cc(F)c1F [amorphous form]	ng·h/mL	1560

###

experiment: Pharmacokinetic test in SD rats; assay type: in vivo; details: rat, plasma, po, 10 mg/kg, rat No. 1; intragastric gavage at 10 mg/kg

Molecule	Tmax / h
C[C@@H](Nc1ccn2ncc(C3=NOC(C)(C)N3)c2n1)c1cc(F)cc(F)c1F [amorphous form]	8

###

test: Pharmacokinetic test in SD rats; format: in vivo; conditions: rat, in vivo, po, 10 mg/kg, rats, intragastric gavage 10 mg/kg; No. 3

Molecule	MRT last
C[C@@H](Nc1ccn2ncc(C3=NOC(C)(C)N3)c2n1)c1cc(F)cc(F)c1F [crystal form A]	6.66 h

###

assay: Pharmacokinetic test in SD rats; format: in vivo; details: rat, in vivo, po, 10 mg/kg, rats, intragastric gavage 10 mg/kg; Mean
Endpoint: AUC(0-inf) (µg·h/mL)

Molecule	Endpoint	Unit	Data value
C[C@@H](Nc1ccn2ncc(C3=NOC(C)(C)N3)c2n1)c1cc(F)cc(F)c1F [crystal form A]	AUC(0-inf)	µg·h/mL	4.8

###

assay: Pharmacokinetic test in SD rats; assay type: in vivo; details: rat, in vivo, po, 10 mg/kg, rats, intragastric gavage 10 mg/kg; No. 2

Molecule	AUC(0-inf)
C[C@@H](Nc1ccn2ncc(C3=NOC(C)(C)N3)c2n1)c1cc(F)cc(F)c1F [crystal form A]	3580 ng·h/mL

###

test: Approximate solubility in organic solvents at room temperature; format: physicochemical; conditions: Isopropanol
Endpoint: solubility

Compound	Endpoint	Data value
C[C@@H](Nc1ccn2ncc(C3=NOC(C)(C)N3)c2n1)c1cc(F)cc(F)c1F [crystal form A]	solubility	> 42 mg/mL

###

test: Pharmacokinetic test in SD rats; format: in vivo; details: rat, plasma, po, 10 mg/kg, rat No. 2; intragastric gavage at 10 mg/kg

Compound	Tmax
C[C@@H](Nc1ccn2ncc(C3=NOC(C)(C)N3)c2n1)c1cc(F)cc(F)c1F [amorphous form]	4 h

###

assay: Pharmacokinetic test in SD rats; assay type: in vivo; settings: rat, plasma, po, 10 mg/kg, rat No. 2; intragastric gavage at 10 mg/kg
Endpoint: MRT last (h)

Compound	Endpoint	Data value
C[C@@H](Nc1ccn2ncc(C3=NOC(C)(C)N3)c2n1)c1cc(F)cc(F)c1F [amorphous form]	MRT last	9.26

###

assay: Pharmacokinetic test in SD rats; format: in vivo; conditions: rat, in vivo, po, 10 mg/kg, rats, intragastric gavage 10 mg/kg; No. 3

Compound	Unit	Cmax
C[C@@H](Nc1ccn2ncc(C3=NOC(C)(C)N3)c2n1)c1cc(F)cc(F)c1F [crystal form A]	ng/mL	623

###

assay: Pharmacokinetic test in SD rats; type: in vivo; conditions: rat, in vivo, po, 10 mg/kg, rats, intragastric gavage 10 mg/kg; No. 2
Endpoint: AUC(0-t) (ng·h/mL)

Compound	Data value
C[C@@H](Nc1ccn2ncc(C3=NOC(C)(C)N3)c2n1)c1cc(F)cc(F)c1F [crystal form A]	3550

###

assay: Pharmacokinetic test in SD rats; type: in vivo; conditions: rat, in vivo, po, 10 mg/kg, rats, intragastric gavage 10 mg/kg; Mean

Molecule	AUC(0-t) (ng·h/mL)
C[C@@H](Nc1ccn2ncc(C3=NOC(C)(C)N3)c2n1)c1cc(F)cc(F)c1F [crystal form A]	4730

###

assay: Pharmacokinetic test in SD rats; format: in vivo; settings: rat, plasma, po, 10 mg/kg, rat No. 1; intragastric gavage at 10 mg/kg

Compound	AUC(0-t) (ng·h/mL)
C[C@@H](Nc1ccn2ncc(C3=NOC(C)(C)N3)c2n1)c1cc(F)cc(F)c1F [amorphous form]	894

###

assay: Approximate solubility in organic solvents at room temperature; type: physicochemical; details: Acetonitrile
Endpoint: solubility

Compound	Data value
C[C@@H](Nc1ccn2ncc(C3=NOC(C)(C)N3)c2n1)c1cc(F)cc(F)c1F [crystal form A]	> 44 mg/mL

###

assay: Approximate solubility in organic solvents at room temperature; assay type: physicochemical; details: Dichloromethane
Endpoint: solubility

Molecule	Data value
C[C@@H](Nc1ccn2ncc(C3=NOC(C)(C)N3)c2n1)c1cc(F)cc(F)c1F [crystal form A]	> 40 mg/mL

###

assay: Pharmacokinetic test in SD rats; format: in vivo; conditions: rat, in vivo, po; rats, intragastric gavage 10 mg/kg; No. 1
Endpoint: Tmax (h)

Compound	Data value
C[C@@H](Nc1ccn2ncc(C3=NOC(C)(C)N3)c2n1)c1cc(F)cc(F)c1F [crystal form A]	4
